testSystem: recombinant human Mcl-1 (residues 171-327) / Bim interaction (Homo sapiens (Human), UniProt Q07820)
Sequence (Q07820 171-327): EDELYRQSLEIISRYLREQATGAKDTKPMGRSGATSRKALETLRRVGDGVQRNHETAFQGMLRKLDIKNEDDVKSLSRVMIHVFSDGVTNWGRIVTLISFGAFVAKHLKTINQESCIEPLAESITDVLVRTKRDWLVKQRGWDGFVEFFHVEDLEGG
measurementNotes: biochemical
Assay type: binding
appliedConditions: 0.1 nM Mcl-1(171-327), 0.05 nM biotin-Bim (51-76); read-out: Mcl-1 HTRF IC50
measuredQuantity: IC50 (nM)
Numbers only, in nM.

Please state, for each entry, its recorded IC50.
1. CCO[C@]1(CN2CCN3CCOC[C@@H]3C2)/C=C/C[C@H](C)[C@@H](COC)S(=O)(=O)NC(=O)c2ccc3c(c2)N(C[C@@H]2CC[C@H]21)C[C@@]1(CCCc2cc(Cl)ccc21)CO3
2. CO[C@]1(CN2CCN(CC(F)F)CC2)/C=C/C[C@H](C)[C@@H](C)S(=O)(=O)NC(=O)c2ccc3c(c2)N(C[C@@H]2CC[C@H]21)C[C@@]1(CCCc2cc(Cl)ccc21)CO3
3. COCC[C@H]1[C@@H](C)C/C=C/[C@](CN2CCN3CCOC[C@@H]3C2)(OC)[C@@H]2CC[C@H]2CN2C[C@@]3(CCCc4cc(Cl)ccc43)COc3ccc(nc32)C(=O)NS1(=O)=O
4. CO[C@]1(CN2CCN3CCCC[C@@H]3C2)/C=C/C[C@H](C)[C@@H](C[C@H](C)O)S(=O)(=O)NC(=O)c2ccc3c(c2)N(C[C@@H]2CC[C@H]21)C[C@@]1(CCCc2cc(Cl)ccc21)CO3 (single isomer, unassigned) [Example 363]
5. COC(=O)N1CCN(C[C@]2(OC)/C=C/C[C@H](C)[C@@H](C)S(=O)(=O)NC(=O)c3ccc4c(c3)N(C[C@@H]3CC[C@H]32)C[C@@]2(CCCc3cc(Cl)ccc32)CO4)CC1
6. CO[C@]1(CN2CCN3CCS(=O)(=O)C[C@@H]3C2)/C=C/C[C@H](C)[C@@H](C)S(=O)(=O)NC(=O)c2ccc3c(c2)N(C[C@@H]2CC[C@H]21)C[C@@]1(CCCc2cc(Cl)ccc21)CO3 (single isomer, unassigned) [Example 220]
7. CO[C@]1(CN2CC[C@@H]3CCCC[C@H]3C2)/C=C/C[C@H](C)[C@@H](C)S(=O)(=O)NC(=O)c2ccc3c(c2)N(C[C@@H]2CC[C@H]21)C[C@@]1(CCCc2cc(Cl)ccc21)CO3 (single isomer, unassigned)

Result:
0.074
0.189
0.669
0.08
0.282
0.052
4.66

Batch of 2 molecules: report IC50 for each.
1. CO[C@@]1(CN2CCN([C@H]3CCOC3)CC2)/C=C/C[C@H](C)[C@@H](C)S(=O)(=O)NC(=O)c2ccc3c(c2)N(C[C@@H]2CC[C@H]21)C[C@@]1(CCCc2cc(Cl)ccc21)CO3 (single isomer, unassigned)
2. CO[C@@]1(CN2CCN(Cc3nc(C)no3)CC2)/C=C/C[C@H](C)[C@@H](C)S(=O)(=O)NC(=O)c2ccc3c(c2)N(C[C@@H]2CC[C@H]21)C[C@@]1(CCCc2cc(Cl)ccc21)CO3

Result:
[0.107, 0.186]

----------
testSystem: recombinant human Mcl-1 (residues 171-327) / Bim interaction (Homo sapiens (Human), UniProt Q07820)
measurementNotes: biochemical
Assay type: binding
appliedConditions: TR-FRET, Mcl-1(171-327) / biotin-Bim (51-76); read-out: Mcl-1 HTRF IC50
Kindly supply the reported pIC50 values for the records listed here.
Answers are plain numbers, as −log10 of the molar value.

C[C@@H]1[C@@H](C)CCC[C@@](O)(Cc2ccncn2)[C@@H]2CC[C@H]2CN2C[C@@]3(CCCc4cc(Cl)ccc43)COc3ccc(cc32)C(=O)NS1(=O)=O [Example 100114]	8.98
C[C@@H]1[C@@H](C)C/C=C/[C@@](O)([C@@H](C)C(=O)N(C)C)[C@@H]2CC[C@H]2CN2C[C@@]3(CCCc4cc(Cl)ccc43)COc3ccc(cc32)C(=O)NS1(=O)=O (single isomer, unassigned) [Example 100124]	9.49
CO[C@@]1(CS(C)(=O)=O)/C=C/C[C@H](C)[C@@H](C)S(=O)(=O)NC(=O)c2ccc3c(c2)N(C[C@@H]2CC[C@H]21)C[C@@]1(CCCc2cc(Cl)ccc21)CO3	9.16

Batch request: pIC50 per item, same order as input.
1. C[C@@H]1[C@@H](C)C/C=C/[C@@](O)(c2cnccn2)[C@@H]2CC[C@H]2CN2C[C@@]3(CCCc4cc(Cl)ccc43)COc3ccc(cc32)C(=O)NS1(=O)=O
2. CC(C)[C@@]1(O)/C=C/C[C@H](C)[C@@H](C)S(=O)(=O)NC(=O)c2ccc3c(c2)N(C[C@@H]2CC[C@H]21)C[C@@]1(CCCc2cc(Cl)ccc21)CO3
3. C[C@@H]1[C@@H](C)C/C=C/[C@](C)(O)[C@@H]2CC[C@H]2CN2C[C@@]3(CCCc4cc(Cl)ccc43)COc3ccc(nc32)C(=O)NS1(=O)=O (single isomer, unassigned)
4. C[C@@H]1[C@@H](C)CCC[C@]2(OC[C@@H](N(C)C)CO2)[C@@H]2CC[C@H]2CN2C[C@@]3(CCCc4cc(Cl)ccc43)COc3ccc(cc32)C(=O)NS1(=O)=O
5. COc1ccncc1[C@]1(O)/C=C/C[C@H](C)[C@@H](C)S(=O)(=O)NC(=O)c2ccc3c(c2)N(C[C@@H]2CC[C@H]21)C[C@@]1(CCCc2cc(Cl)ccc21)CO3 (single isomer, unassigned)

Result:
1. 9.65
2. 8.46
3. 9.35
4. 9.37
5. 10.03

// each listed compound needs a value for pIC50
1. CO[C@@]1(C[C@H](O)c2ccccn2)/C=C/C[C@H](C)[C@@H](C)S(=O)(=O)NC(=O)c2ccc3c(c2)N(C[C@@H]2CC[C@H]21)C[C@@]1(CCCc2cc(Cl)ccc21)CO3 (single isomer, unassigned) [Example 100489]
2. CCOC(=O)C(F)(F)[C@]1(O)/C=C/C[C@H](C)[C@@H](C)S(=O)(=O)NC(=O)c2ccc3c(c2)N(C[C@@H]2CC[C@H]21)C[C@@]1(CCCc2cc(Cl)ccc21)CO3
3. CO[C@]1(CCN2CCN3CCCC[C@@H]3C2)CCC[C@H](C)[C@@H](C)S(=O)(=O)NC(=O)c2ccc3c(c2)N(C[C@@H]2CC[C@H]21)C[C@@]1(CCCc2cc(Cl)ccc21)CO3
4. C[C@@H]1[C@@H](C)CCC[C@](O)(CC(=O)N2CCN(C)CC2)[C@@H]2CC[C@H]2CN2C[C@@]3(CCCc4cc(Cl)ccc43)COc3ccc(cc32)C(=O)NS1(=O)=O (single isomer, unassigned)
5. COc1ncccc1[C@]1(OC)/C=C/C[C@H](C)[C@@H](C)S(=O)(=O)NC(=O)c2ccc3c(c2)N(C[C@@H]2CC[C@H]21)C[C@@]1(CCCc2cc(Cl)ccc21)CO3
6. C[C@@H]1[C@@H](C)CCC[C@@](O)(C2CCN(C)CC2)[C@@H]2CC[C@H]2CN2C[C@@]3(CCCc4cc(Cl)ccc43)COc3ccc(cc32)C(=O)NS1(=O)=O [Example 100382]

Result:
9.06
10.04
9.56
9.60
8.56
9.33

// batch mode: one pIC50 value per listed entry
1. C[C@@H]1[C@@H](C)C/C=C/[C@@](O)(c2ccncn2)[C@@H]2CC[C@H]2CN2C[C@@]3(CCCc4cc(Cl)ccc43)COc3ccc(cc32)C(=O)NS1(=O)=O (single isomer, unassigned)
2. C[C@@H]1[C@@H](C)C/C=C/[C@@](O)(CCCO)[C@@H]2CC[C@H]2CN2C[C@@]3(CCCc4cc(Cl)ccc43)COc3ccc(cc32)C(=O)NS1(=O)=O [Example 100148]
3. C[C@@H]1[C@@H](C)CCC[C@@](C)(O)[C@@H]2CC[C@H]2CN2C[C@@]3(CCCc4cc(Cl)ccc43)COc3ccc(cc32)C(=O)NS1(=O)=O (single isomer, unassigned)
4. CO[C@@]1(CC=O)/C=C/C[C@H](C)[C@@H](C)S(=O)(=O)NC(=O)c2ccc3c(c2)N(C[C@@H]2CC[C@H]21)C[C@@]1(CCCc2cc(Cl)ccc21)CO3
5. CO[C@H](C)[C@]1(OC)/C=C/C[C@H](C)[C@@H](C)S(=O)(=O)NC(=O)c2ccc3c(c2)N(C[C@@H]2CC[C@H]21)C[C@@]1(CCCc2cc(Cl)ccc21)CO3 [Example 100475]

Result:
1: 9.07; 2: 9.95; 3: 9.73; 4: 9.32; 5: 8.86

----------
testSystem: recombinant human Mcl-1 (residues 171-327) / Bim interaction (Homo sapiens (Human), UniProt Q07820)
measurementNotes: biochemical
Format: binding
appliedConditions: 0.1 nM Mcl-1(171-327), 0.05 nM biotin-Bim (51-76); read-out: Mcl-1 HTRF IC50
So I've got a bunch of molecules here, and I need their pIC50 values.
Answers are plain numbers, as −log10 of the molar value.

Some molecules with recorded pIC50:
CO[C@@]1(CN2CCc3[nH]nnc3C2)/C=C/C[C@H](C)[C@@H](C)S(=O)(=O)NC(=O)c2ccc3c(c2)N(C[C@@H]2CC[C@H]21)C[C@@]1(CCCc2cc(Cl)ccc21)CO3 [Example 205]	9.58
CO[C@]1(CN2CCN3CCN(S(C)(=O)=O)C[C@@H]3C2)/C=C/C[C@H](C)[C@@H](C)S(=O)(=O)NC(=O)c2ccc3c(c2)N(C[C@@H]2CC[C@H]21)C[C@@]1(CCCc2cc(Cl)ccc21)CO3 (single isomer, unassigned) [Example 238]	9.75
CO[C@]1(CN2CCc3ncncc3C2)/C=C/C[C@H](C)[C@@H](C)S(=O)(=O)NC(=O)c2ccc3c(c2)N(C[C@@H]2CC[C@H]21)C[C@@]1(CCCc2cc(Cl)ccc21)CO3 [Example 222]	10.10
CCCCN1CCN(C[C@]2(OC)/C=C/C[C@H](C)[C@@H](C)S(=O)(=O)NC(=O)c3ccc4c(c3)N(C[C@@H]3CC[C@H]32)C[C@@]2(CCCc3cc(Cl)ccc32)CO4)CC1 [Example 301]	9.71

Consider the additional molecule presented here.
Q: What does the record list as pIC50 for CO[C@@]1(CN2CC3(C2)CN(C)C(=O)O3)/C=C/C[C@H](C)[C@@H](C)S(=O)(=O)NC(=O)c2ccc3c(c2)N(C[C@@H]2CC[C@H]21)C[C@@]1(CCCc2cc(Cl)ccc21)CO3 [Example 291] ?
Result: 10.08
